The reported measurements were obtained from paper PMC7819943.

Target: OsWOX13 (Oryza sativa, UniProt Q5QMM3 1-267)
Sequence: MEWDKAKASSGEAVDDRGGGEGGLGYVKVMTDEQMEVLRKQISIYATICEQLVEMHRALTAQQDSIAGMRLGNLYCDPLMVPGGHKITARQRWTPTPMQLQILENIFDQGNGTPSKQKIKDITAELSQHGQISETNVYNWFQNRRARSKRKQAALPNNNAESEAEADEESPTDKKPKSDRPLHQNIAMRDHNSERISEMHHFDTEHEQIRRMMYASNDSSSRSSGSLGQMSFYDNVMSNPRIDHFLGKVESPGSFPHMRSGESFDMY
Assay: protein-binding microarray (RPBM); PBS, 2% BSA, 51.3 ng/ul salmon testes DNA, 50 uM zinc acetate, 200 nM TF, 25 C, 1 h; high values mean tight binding
Conditions: protein: recombinant; tags: N-terminal polyhistidine and DsRed monomer fusion (pET32a); label: CyDye5-dUTP incorporated in the synthesized complementary strand; 3' TTTTT single-stranded linker to array surface; dsDNA, one strand shown
In all, about 35,000 sequences were measured (“fluorescence intensity (a.u.)”: median about 10,000, highest 2% from about 52,000 on). For the sample, the highest values were picked, then their nearest neighbours and some sequences at random.
Observation type: binding signal

In [3]: df
Out[3]:
                                        seq                              study_system  observation_type                     recorded_result
0  TAAATTTAAACGGTAAATTAAGGAGAGGGAGGTCATTCTTCGGAGTCACCTAGTGCAG  OsWOX13 (Oryza sativa, UniProt Q5QMM3 1-267)    binding signal  6560 fluorescence intensity (a.u.)

Task: Test system OsWOX13 (Oryza sativa, UniProt Q5QMM3 1-267); read-out binding signal; what value for `ACAATTGAATGATTGATTGCAGCTCAAGCTTCAATCCGCACGGAGTCACCTAGTGCAG` ?
Result: 63900 fluorescence intensity (a.u.)

Task: Entry `CAAAATATACTAATTTCTTCAAGCAAAGGTCCAGCCCATCCGGAGTCACCTAGTGCAG` please
Result: 3240 fluorescence intensity (a.u.)

----------
Measured binding signal accompanies every entry in the list below.
Molecular target: OsWOX13 (Oryza sativa, UniProt Q5QMM3 1-267)
Sequence: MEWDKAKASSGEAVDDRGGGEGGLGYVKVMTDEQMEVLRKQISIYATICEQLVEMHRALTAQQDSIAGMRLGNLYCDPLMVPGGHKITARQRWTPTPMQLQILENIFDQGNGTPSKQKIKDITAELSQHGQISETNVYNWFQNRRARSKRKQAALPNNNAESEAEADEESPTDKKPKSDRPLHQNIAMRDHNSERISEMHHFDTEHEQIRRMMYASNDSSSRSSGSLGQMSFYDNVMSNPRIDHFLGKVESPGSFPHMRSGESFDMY
Experiment: protein-binding microarray (RPBM); PBS, 2% BSA, 51.3 ng/ul salmon testes DNA, 50 uM zinc acetate, 200 nM TF, 25 C, 1 h; high values mean tight binding
Details: protein: recombinant; tags: N-terminal polyhistidine and DsRed monomer fusion (pET32a); label: CyDye5-dUTP incorporated in the synthesized complementary strand; 3' TTTTT single-stranded linker to array surface; dsDNA, one strand shown
In all, about 35,000 sequences were measured (“fluorescence intensity (a.u.)”: median about 10,000, highest 2% from about 52,000 on). This excerpt belongs to a sample that is enriched for the highest values.

>>> print(df.to_string())
                                        seq                              study_system                      recorded_result
0  ATTGATTTGATTGTATTCATAATCATACAATTATCTTAGCCGGAGTCACCTAGTGCAG  OsWOX13 (Oryza sativa, UniProt Q5QMM3 1-267)  65200 fluorescence intensity (a.u.)
1  TCCATTTATCCCGATAATTTGTACTACATTTGTATAGGCCCGGAGTCACCTAGTGCAG  OsWOX13 (Oryza sativa, UniProt Q5QMM3 1-267)   5670 fluorescence intensity (a.u.)
2  CCCTTGATTTACTTGATAATTTGTTATAGGTCCCTATCCCCGGAGTCACCTAGTGCAG  OsWOX13 (Oryza sativa, UniProt Q5QMM3 1-267)  53400 fluorescence intensity (a.u.)

Task: What value of measured binding signal is listed for `AGCGATTAGTAAGTGGATTGGATCTAACTAAGCTTGCTACCGGAGTCACCTAGTGCAG` ?
Result: 9310 fluorescence intensity (a.u.)

Task: And then `CGTACAATATTAATTAAAGTGTTTAAGAAACAGAGACTAGCGGAGTCACCTAGTGCAG` , what is it?
Result: 3740 fluorescence intensity (a.u.)

Task: Next entry: `AACATGGAGAATATGCTAATTAGTAAAACATGTTGAAGTGCGGAGTCACCTAGTGCAG`
Result: 3290 fluorescence intensity (a.u.)

Task: And `ATTGATGATTTAATGAAACTAATTTGATATTGTAGATGTTCGGAGTCACCTAGTGCAG` ?
Result: 48300 fluorescence intensity (a.u.)

Task: One more sequence: `TATCTACTAATTTAACTTATAAATGGGTTTATGGGTTGACCGGAGTCACCTAGTGCAG`
Result: 11200 fluorescence intensity (a.u.)

Task: // query: `AATTTTCTTATGATTAGCATTTCTATTGCTATTAGATGATCGGAGTCACCTAGTGCAG`
Result: 8930 fluorescence intensity (a.u.)

Task: Quick one: `GCTAATAGATTGCTATTGTATCTGCTCTTATGCATGATCGCGGAGTCACCTAGTGCAG`
Result: 61200 fluorescence intensity (a.u.)

Task: Same thing, different sequence: `TCGTAAATTTAAATCCATAGATTTAAGGAATACTTAGGCTCGGAGTCACCTAGTGCAG`
Result: 25900 fluorescence intensity (a.u.)

Task: Now the same for `CATAATTACCAGACATGTTAAATTTAATATATGGATGTATCGGAGTCACCTAGTGCAG`
Result: 40800 fluorescence intensity (a.u.)

Task: Do the same for `TTTGTTAAATTTCTCAATTGATTCATAATTCTTTATTAGCCGGAGTCACCTAGTGCAG` please
Result: 10300 fluorescence intensity (a.u.)

Task: Same for `AAGACGGTAATAGACTGTGCGAGTTGAACATGCAACTCTACGGAGTCACCTAGTGCAG`
Result: 7360 fluorescence intensity (a.u.)
